Values compiled from PubChem BioAssay (NCI).

TGI: recorded values
# Tested on: SK-MEL-2 melanoma
# Protocol Details: NCI tumour cell line growth inhibition, 48 h

Molecule	Result
C=CCCCC(=O)CCC(=O)OCC1O[C@@H](O[C@@H]2C(O)[C@@H](OC(C)=O)C(C)O[C@H]2O[C@H](CC=C)CCCCC)C(O)[C@@H](OC(=O)/C(C)=C/C)[C@@H]1OC(=O)/C=C/c1ccccc1 (stereo partly specified)	> 14.7 µM
COc1ccc(-c2c3ccccc3c(-c3ccc(OC)cc3)c3ccccc23)cc1	> 100 µM
CN1N=C(c2ccncc2)OC1c1ccc(Cl)cc1Cl (stereo unspecified)	> 100 µM
CC(Cc1ccc(O)cc1)NCC(O)c1ccc(O)c(O)c1 (stereo unspecified)	> 100 µM
CC1(C)C(O)OC(O)C1(C)C (stereo unspecified)	> 100 µM

# evaluate next
Supply measured TGI of CCCCCCCCCCCCCCNc1nc(C(=O)OCC)ncc1-c1ccc(C(F)(F)F)cc1 in your reply.
> 100 µM
